Target: HPDE4
Test: Competition for high affinity HPDE4 ([H^3] rolipram binding)
Conditions: 50% inhibition of the binding of [H^3] rolipram
assay-readout: IC50

# input Item COc1ccc(C(O)Cc2c(Cl)c[n+]([O-])cc2Cl)cc1OC1CCCC1 (stereo not shown) [Compound 20] has what recorded IC50?
# output 299 nM

# input What about CC(C)Cc1ccc(C(C)C(=O)OC(Cc2c(Cl)c[n+]([O-])cc2Cl)c2ccc(OC(F)F)c(OCC3CC3)c2)cc1 (stereo not shown) [Compound 15] ?
# output 2.17 nM

# input What do you get for COc1ccc(C(Cc2c(Cl)cncc2Cl)OC(=O)C(C)c2ccc(CC(C)C)cc2)cc1OC1CCCC1 (stereo not shown) [Compound 9] ?
# output 399 nM

# input What about this compound? O=C(OC(Cc1c(Cl)cncc1Cl)c1ccc(OC(F)F)c(OCC2CC2)c1)c1ccc(OC(F)F)c(OCC2CC2)c1 (stereo not shown) [Compound 11]
# output 153 nM

====

Test system: LPS-induced TNF-α release in peripheral blood mononuclear cells (PBMCs)
Experiment: PDE4 inhibitory activity in the PBMCs assay (LPS-induced TNF-α release)
Type: cell-based
Conditions: PBMC; human PBMCs, LPS 3 ng/ml, 18 hours, TNF-α by ELISA
IC50 by entry:
Your answer is read as nM, so omit the unit and give the number.

Example entries begin here.
molecule: O=C(OC(Cc1c(Cl)c[n+]([O-])cc1Cl)c1ccc(OC(F)F)c(OCC2CC2)c1)c1ccc(OC(F)F)c(OCC2CC2)c1 (stereo not shown)
target-entity: LPS-induced TNF-α release in peripheral blood mononuclear cells (PBMCs)
IC50 / nM: 2
--
molecule: COc1ccc(C(Cc2c(Cl)cncc2Cl)OC(=O)C(C)c2ccc(CC(C)C)cc2)cc1OC1CCCC1 (stereo not shown)
target-entity: LPS-induced TNF-α release in peripheral blood mononuclear cells (PBMCs)
IC50 / nM: 85
--
molecule: COc1ccc(C(Cc2c(Cl)cncc2Cl)OC(=O)C2(c3ccccc3)CC2)cc1OC (stereo not shown)
target-entity: LPS-induced TNF-α release in peripheral blood mononuclear cells (PBMCs)
IC50 / nM: 52
--
molecule: N[C@H](C(=O)OC(Cc1c(Cl)cncc1Cl)c1ccc(OC(F)F)c(OCC2CC2)c1)c1ccccc1 (stereo partly shown)
target-entity: LPS-induced TNF-α release in peripheral blood mononuclear cells (PBMCs)
IC50 / nM: 99
--
molecule: COc1ccc(C(=O)OC(Cc2c(Cl)cncc2Cl)c2ccc(OC)c(OC)c2)cc1OC (stereo not shown)
target-entity: LPS-induced TNF-α release in peripheral blood mononuclear cells (PBMCs)
IC50 / nM: 34.2

# input Quick one: IC50 for COc1ccc(C(Cc2c(Cl)cncc2Cl)OC(=O)C(C)c2ccc(N)cc2)cc1OC (stereo not shown) ?
# output 36

# input Now try COc1ccc(C(Cc2c(Cl)cncc2Cl)OC(=O)[C@@H](C)c2ccc(CC(C)C)cc2)cc1OC (stereo partly shown) .
# output 69

====

Entries and their measured log10 IC50 follow.
System: LPS-induced TNF-α release in peripheral blood mononuclear cells (PBMCs)
Experiment: PDE4 inhibitory activity in the PBMCs assay (LPS-induced TNF-α release)
Type: cell-based
Details: PBMC; human PBMCs, LPS 3 ng/ml, 18 hours, TNF-α by ELISA
Source text: […]
On a log10 scale: recorded IC50, unit nM.

Answered cases to consult:
compound: COc1ccc(C(Cc2c(Cl)cncc2Cl)OC(=O)Cc2ccccc2)cc1OC (centres unmarked)
log10 IC50: 1.95
--
compound: COc1ccc(C(Cc2c(Cl)c[n+]([O-])cc2Cl)OC(=O)C(C)c2ccc(CC(C)C)cc2)cc1OC (centres unmarked)
log10 IC50: 1.11
--
compound: CC(C)Cc1ccc(C(C)C(=O)OC(Cc2c(Cl)cncc2Cl)c2ccc(OC(F)F)c(OCC3CC3)c2)cc1 (centres unmarked)
log10 IC50: 2.66

# input For the compound shown here, O=C(OC(Cc1c(Cl)cncc1Cl)c1ccc(OC(F)F)c(OCC2CC2)c1)c1ccc(OC(F)F)c(OCC2CC2)c1 (centres unmarked) , give the reported log10 IC50.
# output 1.71

# input And for CC(C)(C)OC(=O)N[C@@H](C(=O)OC(Cc1c(Cl)cncc1Cl)c1ccc(OC(F)F)c(OCC2CC2)c1)c1ccccc1 (some centres unmarked) ?
# output 1.98
